Tested on: HCT-116
assay explanation: In vitro cytotoxicity (GI50), colon/colorectal cell line
Type: cell-based
property measured: IC50 (µM)
Respond with the bare value in µM.

Consider the compound `O=c1ncccn1[C@H]1O[C@H](CO)[C@@H](O)C1(F)F` and give its recorded IC50.
279

----------
System: L1210
assay explanation: In vitro cytotoxicity, leukemia cell line L1210
run conditions: read-out: In vitro cytotoxicity, Leukemia L1210; Table 3
property measured: IC50 (µM)
Respond with the bare value in µM.

Consider the molecule `O=c1ncccn1[C@@H]1O[C@H](CO)[C@@H](O)C1(F)F` and give its recorded IC50.
321

----------
System: MDA-MB-231
assay explanation: In vitro cytotoxicity (GI50), breast cancer cell line
Type: cell-based
property measured: IC50 (µM)
Respond with the bare value in µM.

Consider the compound `O=c1ncccn1[C@H]1O[C@H](CO)[C@@H](O)C1(F)F` and give its recorded IC50.
213

----------
Tested on: NCI-H460
assay explanation: In vitro cytotoxicity (GI50), non-small cell lung cell line
Format: cell-based
property measured: IC50

Consider the compound `O=c1ncccn1[C@H]1O[C@H](CO)[C@@H](O)C1(F)F` and give its recorded IC50.
136 µM

----------
System: HCT-116
assay explanation: In vitro cytotoxicity (GI50), colon/colorectal cell line
Format: cell-based
run conditions: Table 3; read-out: In vitro cytotoxicity, Colon HCT-116
property measured: IC50 (µM)
Respond with the bare value in µM.

Consider the molecule `O=c1ncccn1[C@@H]1O[C@H](CO)[C@@H](O)C1(F)F` and give its recorded IC50.
310
